- Tested system: hSERT transporter (Homo sapiens, UniProt P31645)
- Construct: expressed in transfected cells; membranes prepared
- Sequence (P31645 whole entry): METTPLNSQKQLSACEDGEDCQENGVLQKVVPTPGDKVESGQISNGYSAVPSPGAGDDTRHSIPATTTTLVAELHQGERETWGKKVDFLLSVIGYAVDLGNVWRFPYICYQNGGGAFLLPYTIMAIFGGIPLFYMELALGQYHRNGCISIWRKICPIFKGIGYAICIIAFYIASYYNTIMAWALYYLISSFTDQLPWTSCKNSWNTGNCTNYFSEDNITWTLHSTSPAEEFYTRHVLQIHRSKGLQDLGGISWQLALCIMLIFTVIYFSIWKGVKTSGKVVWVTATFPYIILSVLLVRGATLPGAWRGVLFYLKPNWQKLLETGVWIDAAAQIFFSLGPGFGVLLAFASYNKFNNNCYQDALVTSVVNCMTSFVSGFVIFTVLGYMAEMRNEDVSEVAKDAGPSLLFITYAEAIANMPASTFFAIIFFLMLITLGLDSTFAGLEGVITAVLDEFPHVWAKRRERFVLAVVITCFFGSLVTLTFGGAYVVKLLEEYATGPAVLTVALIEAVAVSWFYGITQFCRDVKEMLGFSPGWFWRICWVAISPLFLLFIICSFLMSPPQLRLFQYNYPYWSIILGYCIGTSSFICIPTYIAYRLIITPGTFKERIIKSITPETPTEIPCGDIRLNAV
- Assay name: Human serotonin transporter (hSERT) scintillation proximity assay, competition with [3H]-Citalopram
- Format: binding
- Assay context: Table 1; read-out: pIC50 SERT (converted)
For each record, write down the corresponding IC50.
Answers are plain numbers, in nM.

The following compounds have reported results that may help.
>>> obs_value("Cc1ccc(C(=O)C2(CCC(C)C)CCNCC2)cc1Cl")
3.47
>>> obs_value("CCCC1(C(=O)c2ccc(Cl)c(N(C)c3ccccc3)c2)CCNCC1")
18.6
>>> obs_value("CC(C)(C)CCC1(C(=O)c2ccc(Cl)c(Oc3ccc(F)cc3)c2)CCNC1 (centres unmarked)")
120
>>> obs_value("CC(C)(C)CCOc1cc(C(=O)C2(CCC(C)(C)C)CCNC2)ccc1Cl (centres unmarked)")
85.1
>>> obs_value("O=C(c1ccc(Cl)c(Cl)c1)C1(CC2CCOCC2)CCNCC1")
1.15
>>> obs_value("CCCC1(C(=O)c2ccc(Cl)cc2Oc2ccccc2)CCNCC1")
69.2
>>> obs_value("CCCC1(C(=O)c2ccc(Cl)c(S(=O)(=O)c3ccccc3)c2)CCNC1 (centres unmarked)")
191

Query: Sample CCCC1(C(=O)c2ccc(Cl)c(Oc3ccc(C(F)(F)F)cc3)c2)CCNC1 (centres unmarked) — what was its IC50?
Reply: 166

====

- Tested system: hDAT (Homo sapiens, UniProt Q01959)
- Construct: expressed in transfected cells; plated whole cells
- Sequence (Q01959 whole entry): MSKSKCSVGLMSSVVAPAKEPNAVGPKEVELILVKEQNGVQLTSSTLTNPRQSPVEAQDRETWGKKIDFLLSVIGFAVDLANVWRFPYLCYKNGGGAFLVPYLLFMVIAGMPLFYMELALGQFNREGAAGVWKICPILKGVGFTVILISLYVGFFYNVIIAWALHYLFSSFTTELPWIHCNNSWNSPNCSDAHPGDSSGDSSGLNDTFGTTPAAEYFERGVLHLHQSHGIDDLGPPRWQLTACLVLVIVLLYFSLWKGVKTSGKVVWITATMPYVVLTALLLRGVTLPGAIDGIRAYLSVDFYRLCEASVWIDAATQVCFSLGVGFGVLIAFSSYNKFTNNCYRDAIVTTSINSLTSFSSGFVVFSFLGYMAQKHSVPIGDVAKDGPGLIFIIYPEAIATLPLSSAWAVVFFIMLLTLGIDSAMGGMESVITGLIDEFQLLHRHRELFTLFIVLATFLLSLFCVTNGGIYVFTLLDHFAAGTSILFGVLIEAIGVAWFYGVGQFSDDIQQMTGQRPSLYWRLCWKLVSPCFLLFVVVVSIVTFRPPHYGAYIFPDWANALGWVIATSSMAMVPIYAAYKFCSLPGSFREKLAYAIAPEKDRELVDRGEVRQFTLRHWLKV
- Assay name: Human dopamine transporter scintillation proximity assay, competition with [3H]-Vanoxerine
- Type: binding
pIC50: −log10 of the molar value.
Record t whenever pIC50 is at 8 or higher; record f when lower.

Query: Is reported pIC50 greater than or equal to 8 here: CC[C@]1(C(=O)c2ccc(Cl)c(Cl)c2)CC[C@@H]2CC[C@H]1N2
Reply: f

Query: What about CC(C)(C)CC[C@@]1(C(=O)c2cc(F)c(N)c(Cl)c2)CCNC1 ?
Reply: f

Query: What about CC[C@@]1(C(=O)c2ccc(Cl)c(Cl)c2)CC[C@@H]2CC[C@H]1N2 ?
Reply: f

Query: What about O=C(c1ccc(Cl)c(Cl)c1)C1(CC2CCCO2)CCNCC1 (centres unmarked) ?
Reply: t

Query: What about CC(C)C[C@@]1(C(=O)c2ccc(Cl)c(Cl)c2)CC[C@@H]2CC[C@H]1N2 ?
Reply: f

Query: What about CC(C)CC[C@]1(C(=O)c2cc(F)c(N)c(Cl)c2)CCNC1 ?
Reply: f

====

- Tested system: hSERT transporter (Homo sapiens)
- Construct: expressed in transfected cells; membranes prepared
- Assay name: Human serotonin transporter (hSERT) scintillation proximity assay, competition with [3H]-Citalopram
- Assay type: binding
- Procedure: Screening for Human Serotonin Transporter (hSERT) Antagonists Using a Scintillation Proximity Assay (SPA) The screening assay of this example was used to determine the affinity of ligands at the hSERT transporter by competition with [^3H]-Citalopram. […] Cell membranes were prepared using a membrane preparation buffer of 50 mM TRIS (pH 7.4). […] After a second centrifugation, the pellet was re-homogenized and brought to a final volume determined during the assay. […]
Test readout: IC50 (nM)
Answers are plain numbers, in nM.

The following compounds have reported results that may help.
>>> obs_value("CCCC1(C(=O)c2ccc(Br)c(Oc3ccccc3)c2)CCNC1 (stereo not drawn)")
12.6
>>> obs_value("CC(C)C[C@@]1(C(=O)c2ccc(N)c(Cl)c2)CCNC1")
8.32
>>> obs_value("CCCC1(C(=O)c2ccc(Cl)c(Oc3ccccc3)c2)CCNC1 (stereo in doubt) [Compound 29]")
13.2
>>> obs_value("CC(C)CC1(C(=O)c2cc(F)c(N)c(Cl)c2)CCNC1 (stereo in doubt)")
24.5

// for each compound below, give its IC50
1. CCCC1(C(=O)c2ccc(Cl)c(OC(F)(F)F)c2)CCNC1 (stereo not drawn)
2. CCCC1(C(=O)c2ccc3ccccc3c2)CCNCC1
3. CCCC1(C(=O)c2ccc(Cl)c(OCc3ccccc3)c2)CCNC1 (stereo not drawn)
4. CC(C)(C)CC[C@]1(C(=O)c2cc(F)c(N)c(Cl)c2)CCNC1
5. CCCC[C@@]1(C(=O)c2ccc(Cl)c(Cl)c2)CC[C@@H]2CC[C@H]1N2C (mixture of isomers)

Reply:
1. 2.75
2. 0.102
3. 20.4
4. 1.74
5. 331

====

- Tested system: hDAT (Homo sapiens, UniProt Q01959)
- Construct: expressed in transfected cells; plated whole cells
- Assay name: Human dopamine transporter scintillation proximity assay, competition with [3H]-Vanoxerine
- Format: binding
Test readout: pIC50
Give bare numbers, as −log10 of the molar value.

>>> obs_value("CCCC1(C(=O)c2ccc3ccccc3c2)CCNCC1 [Compound 36]")
8.04
>>> obs_value("COC(C)(C)CCC1(C(=O)c2cc(F)c3[nH]ccc3c2)CCNC1 (centres unmarked) [Compound 6]")
7.81
>>> obs_value("CNc1ccc(C(=O)C2(CC(C)C)CCNCC2)cc1Cl [Compound 44]")
7.24
>>> obs_value("CCCC[C@@]1(C(=O)c2ccc(Cl)c(Cl)c2)CC[C@@H]2CC[C@H]1N2C (mixture of isomers) [Compound 54]")
7.55
>>> obs_value("CC[C@@]1(C(=O)c2ccc(Cl)c(Cl)c2)CC[C@@H]2CC[C@H]1N2C [Compound 53]")
6.54
>>> obs_value("CC(C)(C)CCC1(C(=O)c2ccc(Cl)c(Cl)c2)CCCNC1 (centres unmarked) [Compound 56]")
7.82
>>> obs_value("CCCC1(C(=O)c2ccc(Cl)c(Oc3ccccc3)c2)CCNC1 (stereo in doubt) [Compound 30]")
8.63

Query: Sample CCCC[C@]1(C(=O)c2ccc(Cl)c(Cl)c2N)CC2CC[C@H]1N2 [Compound 3] — what was its pIC50?
Reply: 7.15

====

- Tested system: hSERT transporter (Homo sapiens)
- Construct: expressed in transfected cells; membranes prepared
- Assay name: Human serotonin transporter (hSERT) scintillation proximity assay, competition with [3H]-Citalopram
- Format: binding
Test readout: pIC50
Give bare numbers, as −log10 of the molar value.

>>> obs_value("CC[C@@]1(C(=O)c2ccc(Cl)c(Cl)c2)CC[C@@H]2CC[C@H]1N2")
8.11
>>> obs_value("CC(C)(C)CCC1(C(=O)c2cc(Cl)c(N)c(C(F)(F)F)c2)CCNC1 (stereo not drawn)")
7.42
>>> obs_value("CC(C)CCC1(C(=O)c2ccc(Cl)c(Oc3ccccc3)c2)CCNC1 (stereo not drawn)")
7.36

// for each compound below, give its pIC50
1. CCCC1(C(=O)c2ccc(Cl)c(-n3ccnc3)c2)CCCNC1 (stereo not drawn)
2. CC(C)(C)CCC1(C(=O)c2ccc(Cl)c(Cl)c2)CCCNC1 (stereo not drawn)
3. Cc1cc(C(=O)C2(CCC(C)(C)C)CCNC2)ccc1Cl (stereo not drawn)

Reply:
1. 7.10
2. 7.76
3. 8.82
